Every entry's value here was drawn from patent US8338472B2.

- TEST_TARGET: Glucocorticoid Receptor (Homo sapiens)
- Construct: These cells express large amount of the GR and are very responsive to GC treatment; endogenous in cells; host or cells: A549 cells transiently transfected with the MMTV-LUC reporter
- Sequence (P04150 whole entry): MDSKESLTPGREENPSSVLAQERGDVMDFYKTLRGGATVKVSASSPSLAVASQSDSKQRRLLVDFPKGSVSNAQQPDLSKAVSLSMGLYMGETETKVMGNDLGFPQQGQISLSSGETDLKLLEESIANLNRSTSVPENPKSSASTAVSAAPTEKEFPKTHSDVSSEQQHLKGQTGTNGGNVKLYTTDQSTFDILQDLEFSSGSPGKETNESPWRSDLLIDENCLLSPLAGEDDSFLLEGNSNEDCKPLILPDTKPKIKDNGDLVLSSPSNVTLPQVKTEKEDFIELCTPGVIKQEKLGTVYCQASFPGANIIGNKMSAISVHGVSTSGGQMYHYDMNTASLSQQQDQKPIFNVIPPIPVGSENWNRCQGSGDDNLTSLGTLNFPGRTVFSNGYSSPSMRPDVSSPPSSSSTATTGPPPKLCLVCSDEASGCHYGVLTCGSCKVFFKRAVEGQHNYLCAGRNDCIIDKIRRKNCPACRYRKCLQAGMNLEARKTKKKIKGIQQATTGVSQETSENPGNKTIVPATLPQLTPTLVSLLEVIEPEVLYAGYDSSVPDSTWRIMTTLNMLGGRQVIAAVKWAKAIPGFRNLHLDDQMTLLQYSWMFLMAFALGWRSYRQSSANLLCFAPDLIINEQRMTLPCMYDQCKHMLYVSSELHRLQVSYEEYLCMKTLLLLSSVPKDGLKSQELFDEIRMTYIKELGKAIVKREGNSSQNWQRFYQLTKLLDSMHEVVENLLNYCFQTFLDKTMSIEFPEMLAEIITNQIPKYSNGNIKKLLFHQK
- ASSAY_PROTOCOL: Trans-Activation Modulation of Glucocorticoid Receptor (GRAMMER), MMTV-LUC reporter gene in A549 cells
- Assay type: cell-based
- TEST_PARAMETERS: A549, A549 cells; Emax relative to 300 nM dexamethasone; Table 1; read-out: Transactivation A549 Cells GRAMMER Emax
MEASURED_METRIC: Emax (%)
Number in %, nothing else.

COMPOUND	MEASURED_METRIC	RECORDED_VALUE
C[C@H](O)CN(CCC(F)(F)F)C(=O)[C@H]1CCC2=Cc3c(cnn3-c3ccc(F)cc3)C[C@@]21C	Emax	71.1

Output Emax of CC(C)CN(CC(O)C(F)(F)F)C(=O)[C@H]1CCC2=Cc3c(cnn3-c3ccc(F)cc3)C[C@@]21C (some centres unmarked)
71.5

Note down Emax recorded for COCCN(Cc1ccc(OC)cc1)C(=O)[C@H]1CCC2=Cc3c(cnn3-c3ccc(F)cc3)C[C@@]21C
2.2

# return recorded Emax for input C[C@]12Cc3cnn(-c4ccc(F)cc4)c3C=C1CC[C@@H]2C(=O)NC(Cc1ccccc1)c1ccccc1 (some centres unmarked)
3.1

For the compound C[C@]12Cc3cnn(-c4ccc(F)cc4)c3C=C1CC[C@@H]2C(=O)N1CCC(S(=O)(=O)c2ccccc2)CC1 , give its measured Emax value.
2.9

Query Emax for CCCN(CC1CCCO1)C(=O)[C@H]1CCC2=Cc3c(cnn3-c3ccc(F)cc3)C[C@@]21C (some centres unmarked)
18

Provide measured Emax value, entry: CCCCN(CC)C(=O)[C@H]1CCC2=Cc3c(cnn3-c3ccc(F)cc3)C[C@@]21C
29.7

Return the recorded Emax value; entry: C[C@]12Cc3cnn(-c4ccc(F)cc4)c3C=C1CC[C@@H]2C(=O)Nc1ccccc1S(N)(=O)=O
3.8

Quote Emax reported for CCN(CCC(F)(F)F)C(=O)[C@H]1CCC2=Cc3c(cnn3-c3ccc(F)cc3)C[C@@]21C please.
44.5

Tell us which Emax value is on record for CN(CCC(F)(F)F)C(=O)[C@H]1CCC2=Cc3c(cnn3-c3ccc(F)cc3)C[C@@]21C
20.3

Check the records and state Emax for CC(C)CN(CC(C)C)C(=O)[C@H]1CCC2=Cc3c(cnn3-c3ccc(F)cc3)C[C@@]21C
45.3

Please look at this compound and report its Emax: C[C@]12Cc3cnn(-c4ccc(F)cc4)c3C=C1CC[C@@H]2C(=O)N(CCc1ccccc1F)CC(O)CC(F)(F)F (some centres unmarked)
43.8

Answer with reported Emax of Cc1ccc(CCN(CC(O)C(F)(F)F)C(=O)[C@H]2CCC3=Cc4c(cnn4-c4ccc(F)cc4)C[C@@]32C)cc1 (some centres unmarked)
10.3

Identify measured Emax associated with CCNC(=O)CN(CCc1ccccc1)C(=O)[C@H]1CCC2=Cc3c(cnn3-c3ccc(F)cc3)C[C@@]21C
9.2
